Recorded pEC50 by entry
test-system: Sphingosine 1-phosphate receptor 1 (Homo sapiens)
Sequence (P21453 whole entry): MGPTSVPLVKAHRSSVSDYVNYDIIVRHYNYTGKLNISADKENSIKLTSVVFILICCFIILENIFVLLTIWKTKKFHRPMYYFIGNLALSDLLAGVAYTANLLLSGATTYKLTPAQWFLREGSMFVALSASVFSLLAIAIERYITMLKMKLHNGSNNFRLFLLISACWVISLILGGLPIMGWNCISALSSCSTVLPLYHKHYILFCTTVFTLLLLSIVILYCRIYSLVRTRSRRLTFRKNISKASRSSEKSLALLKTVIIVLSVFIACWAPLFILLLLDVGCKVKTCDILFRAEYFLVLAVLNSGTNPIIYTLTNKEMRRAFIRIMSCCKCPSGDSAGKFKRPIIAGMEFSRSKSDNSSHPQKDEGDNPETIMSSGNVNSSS
measurement-description: potentiators of S1P1 agonist response, dose response, cell-based, potentiator mode, 60K MLSMR set (AID 466)
pEC50: −log10 of the molar value.

{"compound": "COc1ccc(OC)c(-c2cc(C(=O)Nc3c(C)nn(Cc4ccc(Cl)cc4)c3C)no2)c1", "value-relation-sign": "<", "pEC50": 5.00}
{"compound": "O=C(Nc1nc(-c2ccc(Cl)s2)cs1)c1ccncc1", "value-relation-sign": "<", "pEC50": 5.00}
{"compound": "O=C1C2CCCN2C(c2cccnc2)N1c1cccc(Cl)c1 (configuration not stated)", "value-relation-sign": "<", "pEC50": 4.02}
{"compound": "N#C/C(=C/c1ccc(N2CCCCCC2)o1)c1ccc(F)cc1", "value-relation-sign": "<", "pEC50": 5.00}
{"compound": "Cc1noc(C)c1S(=O)(=O)N(CC(=O)Nc1ccc2c(c1)OCO2)c1ccc(C(C)C)cc1", "value-relation-sign": "<", "pEC50": 4.02}
{"compound": "CC(=O)Nc1ccccc1OCC(=O)c1cc(C)n(Cc2cccs2)c1C", "value-relation-sign": "=", "pEC50": 6.65}
{"compound": "CC(=N)C(C#N)C(=O)CSc1nnc(SCc2ccc(Cl)cc2)s1 (configuration not stated)", "value-relation-sign": "=", "pEC50": 5.02}
{"compound": "Fc1ccc2[nH]c3c(N4CCSCC4)ncnc3c2c1", "value-relation-sign": "=", "pEC50": 5.20}
{"compound": "Cc1cc(C(=O)CSc2nnc(-c3ccncc3)n2-c2ccccc2)c(C)n1C", "value-relation-sign": "=", "pEC50": 5.65}
{"compound": "COCCN(C(=O)c1ccccc1)c1nnc(-c2cccnc2)s1", "value-relation-sign": "=", "pEC50": 5.32}
{"compound": "Cc1ccc(-c2nc(CSCC(=O)N3CCN(c4ccccn4)CC3)c(C)o2)cc1", "value-relation-sign": "=", "pEC50": 5.22}
{"compound": "CC(C)(C)SCCNS(=O)(=O)c1ccccc1", "value-relation-sign": "<", "pEC50": 4.02}
{"compound": "COc1ccc(-c2noc(-c3cccc(OC)c3OC)n2)cc1OC", "value-relation-sign": "=", "pEC50": 5.99}
{"compound": "CC(C)(CC(=O)N1CCN(c2ccc(Cl)cc2)CC1)CC1=NS(=O)(=O)c2ccccc2N1", "value-relation-sign": "=", "pEC50": 5.00}
{"compound": "Cc1oc2cc(O)cc(O)c2c(=O)c1-c1ccc2c(c1)OCCCO2", "value-relation-sign": "=", "pEC50": 5.43}
{"compound": "Clc1ccc(NCn2cncn2)nc1", "value-relation-sign": "<", "pEC50": 4.02}
{"compound": "CCc1ccc2oc(-c3cc(N)cc(C)c3O)nc2c1", "value-relation-sign": "=", "pEC50": 4.93}
{"compound": "CCOC(=O)CN1C(=O)C(C)(C)Oc2ccc(C(=O)Nc3ccccc3OC)cc21", "value-relation-sign": "=", "pEC50": 5.51}
{"compound": "OC(c1cccc(OCc2ccccc2)c1)c1nnc(-c2ccccc2)o1 (configuration not stated)", "value-relation-sign": "=", "pEC50": 5.58}
{"compound": "O=c1c(-c2ccc3c(c2)OCCO3)c(C(F)(F)F)oc2cc(O)cc(O)c12", "value-relation-sign": "=", "pEC50": 5.42}
{"compound": "COc1ccc(-c2cn3c(C)c(C(=O)N4CCCc5ccccc54)sc3n2)cc1", "value-relation-sign": "<", "pEC50": 4.52}
{"compound": "Cc1ccnc(SCC(=O)Nc2sc3c(c2C#N)CCCC3)n1", "value-relation-sign": "=", "pEC50": 5.28}
{"compound": "Cc1ccsc1C(=O)OCC(=O)c1cc(C)n(CC2CCCO2)c1C (configuration not stated)", "value-relation-sign": "=", "pEC50": 5.08}
{"compound": "CC1(C)CC(=O)C(=CNc2ccc3[nH]ncc3c2)C(=O)C1", "value-relation-sign": "=", "pEC50": 5.22}
{"compound": "Cn1nc(C(C)(C)C)cc1C(=O)NCc1ccc(N2CCCC2=O)cc1", "value-relation-sign": "=", "pEC50": 5.35}
{"compound": "CCOC(=O)c1oc2cc(O)c(CC)cc2c(=O)c1-c1ccc2c(c1)OCCO2", "value-relation-sign": "<", "pEC50": 5.00}
{"compound": "Oc1ccc(C2NCc3ccccc3-n3cccc32)cc1Cl (configuration not stated)", "value-relation-sign": "=", "pEC50": 5.55}
